The entries below are paired with their reported DiscoveRx β-arrestin2 Ymax (%).
Biological target: AGTR1 (Homo sapiens)
Construct: host or cells: Pathunter CHO-K1 AGTR1 β-arrestin cell line (CHO-K1)
Sequence (P30556 1-359): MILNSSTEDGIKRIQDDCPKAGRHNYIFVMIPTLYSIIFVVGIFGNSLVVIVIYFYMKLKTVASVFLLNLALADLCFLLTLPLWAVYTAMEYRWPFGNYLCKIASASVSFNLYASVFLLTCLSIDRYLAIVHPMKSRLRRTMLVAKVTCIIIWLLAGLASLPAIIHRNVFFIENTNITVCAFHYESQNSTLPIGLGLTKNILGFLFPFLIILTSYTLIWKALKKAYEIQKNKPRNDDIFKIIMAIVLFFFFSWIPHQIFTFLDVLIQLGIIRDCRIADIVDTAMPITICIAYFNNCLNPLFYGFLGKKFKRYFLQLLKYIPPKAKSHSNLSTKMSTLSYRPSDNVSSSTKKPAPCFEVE
Assay: DiscoveRx β-arrestin2 recruitment assay (enzyme complementation, Pathunter CHO-K1 AGTR1 β-arrestin cell line)
Assay type: cell-based
Conditions: DiscoveRx β-arrestin2 recruitment, maximal response
Your answer should be a plain number; it is taken to be in %.

Observe how each entry below is paired with its result.
CCCCc1ncc(C(=O)Nc2ccncc2)n1Cc1ccc(-c2cc(-c3ccccc3)ccc2-c2nn[nH]n2)cc1 [Example 353] ... 22.4
CCc1nc2c(C)cc(C)nc2n1Cc1ccc(-c2cc(-c3ccccc3)ccc2C(=O)O)cc1 [Example 31] ... 55.1
CCCCc1nc(Cl)c(C(=O)O)n1Cc1ccc(-c2cc(-c3cncc(OC)c3)ccc2-c2nn[nH]n2)cc1 [Example 385] ... 35.4
CCc1nc2c(C)cc(C)nc2n1Cc1ccc(-c2cc(-n3ccc4cc(F)ccc43)ccc2-c2nn[nH]n2)cc1 [Example 85] ... 16.9
CCCCC1=NC2(CCCC2)C(=O)N1Cc1ccc(-c2cc(-c3cccc(C)n3)ccc2-c2nn[nH]n2)cc1 [Example 138] ... 27.9
CCc1nc2c(C)cc(C)nc2n1Cc1ccc(-c2cc(N3C(=O)c4ccccc4C3=O)ccc2-c2nn[nH]n2)cc1 [Example 27] ... 10.6

Now consider the entry below.
Give the measured DiscoveRx β-arrestin2 Ymax (%) for CCOc1nc2cccc(C(=O)O)c2n1Cc1ccc(-c2cc(-c3cc(OC(F)F)ccn3)ccc2-c2noc(=O)[nH]2)cc1 [Example 302]
61.1

* * *

target: hAT1R (Homo sapiens); assay: cell-based; conditions: agonist mode; read-out: BRET P63 EC50
The entries below are paired with their reported pEC50.
Scale note: pEC50 = -log10(concentration in M).

CCc1nc2c(C)cc(C)nc2n1Cc1ccc(-c2cc(-c3cccc(C)c3)ccc2-c2nnn[nH]2)cn1 [Example 177] ... 7.44
CCCC1=NC2(CCOC2)C(=O)N1Cc1ccc(-c2cc(-c3ccccc3F)ccc2-c2nnn[nH]2)cc1 (single isomer, unassigned) [Example 161] ... 7.30
CCc1nc2c(C)cc(C)nc2n1Cc1ccc(-c2cc(-c3cccc(C)c3)ccc2C(=O)O)nn1 [Example 200] ... 5.69
CCOc1nc2cccc(C(=O)O)c2n1Cc1ccc(-c2cc(-c3cc(C)ccn3)ccc2-c2noc(=O)[nH]2)cc1 [Example 299] ... 8.31

Give the measured pEC50 for CCC1=NC2(CCOC2)C(=O)N1Cc1ccc(-c2cc(-c3ccccc3)ccc2-c2nn[nH]n2)cc1 (single isomer, unassigned) [Example 165]
6.58

* * *

The entries below are paired with their reported BRET P63 Ymax.
target: hAT1R (Homo sapiens); test: cell-based; settings: agonist mode
Your answer should be a plain number; it is taken to be in %.

Observe how each entry below is paired with its result.
CCc1nc2c(C)cc(C)nc2n1Cc1ccc(-c2cc(-c3ccc(CO)cc3)ccc2-c2nn[nH]n2)cc1 ... 12.4
CCc1nc2c(C)cc(C)nc2n1Cc1ccc(-c2cc(-c3ccccc3)ccc2-c2n[nH]c(=S)o2)cc1 ... 10.1

Give the measured BRET P63 Ymax for CCc1nc2c(C)cc(C)nc2n1Cc1ccc(-c2cc(-c3cn(CC)nn3)ccc2-c2nnn[nH]2)cc1
37.1

Give the measured BRET P63 Ymax for CCc1nc2c(C)cc(C)nc2n1Cc1ccc(-c2cc(Oc3ccc(F)cc3F)ccc2-c2nnn[nH]2)cc1
17.4

Give the measured BRET P63 Ymax for CCc1nc2c(C)cc(C)nc2n1Cc1ccc(-c2cc(-n3cc(C4CC4)nn3)ccc2-c2nnn[nH]2)cc1
7.1

Give the measured BRET P63 Ymax for CCOc1nc2cccc(C(=O)O)c2n1Cc1ccc(-c2cc(OC3CCCCC3)ccc2-c2nn[nH]n2)cc1
15.3

Give the measured BRET P63 Ymax for CCc1nc2c(C)cc(C)nc2n1Cc1ccc(-c2cc(-c3ccc(C(=O)N(C)C)cc3)ccc2C(=O)O)cc1
11.7

* * *

biological target: AGTR1 (Homo sapiens); construct: host or cells: Pathunter CHO-K1 AGTR1 β-arrestin cell line (CHO-K1); test: DiscoveRx β-arrestin2 recruitment assay (enzyme complementation, Pathunter CHO-K1 AGTR1 β-arrestin cell line); type: cell-based; conditions: DiscoveRx β-arrestin2 recruitment, maximal response
Classify by DiscoveRx β-arrestin2 Ymax (%). Ranges: band A = under 40%, band B = from 40% up to 60%, band C = 60% and over

Solved entries:
CCc1nc2c(C)cc(C)nc2n1Cc1cnc(-c2cc(-c3ccccc3)ccc2-c2nnn[nH]2)cn1 ... band A
CCc1nc2c(C)cc(C)nc2n1Cc1ccc(-c2cc(-c3cccc(C)c3)ccc2C(=O)O)cn1 ... band C
CCCCc1nc(Cl)c(C(=O)O)n1Cc1ccc(-c2cc(-c3cn(C(C)C)nc3C(F)(F)F)ccc2-c2nn[nH]n2)cc1 ... band C
CCc1nc2c(C)cc(C)nc2n1Cc1ccc(-c2cc(-c3cccc(C)c3)ccc2C(=O)O)cc1 ... band C
CCCCc1ncc(C(=O)NCCC2CC2)n1Cc1ccc(-c2cc(-c3ccccc3)ccc2-c2nn[nH]n2)cc1 ... band B
CCCCC(=O)N(Cc1ccc(-c2cc(-c3cccnc3OC)ccc2-c2nn[nH]n2)cc1)C1(C(=O)O)CCCCC1 ... band A

Looking at CCc1nc2c(C)cc(C)nc2n1Cc1ccc(-c2cc(-c3ccc(C(=O)N(C)C)cc3)ccc2-c2nn[nH]n2)cc1 , which class would you pick?
band A

Looking at CCC1=NC2(CCOC2)C(=O)N1Cc1ccc(-c2cc(-c3ccccc3O)ccc2-c2nnn[nH]2)cc1 (single isomer, unassigned) [Example 167] , which class would you pick?
band C

Looking at CCc1nc2c(C)cc(C)nc2n1Cc1ccc(-c2cc(-n3cc(C(C)C)nn3)ccc2-c2nnn[nH]2)cc1 , which class would you pick?
band B

Looking at CCCc1nc(CC)c(C(=O)NCC(F)(F)F)n1Cc1ccc(-c2cc(-c3ccccc3)ccc2-c2nn[nH]n2)cc1 , which class would you pick?
band B

Looking at CCCCc1ncc(C(=O)NC2CC3(CCC3)C2)n1Cc1ccc(-c2cc(-c3ccccc3)ccc2-c2nn[nH]n2)cc1 , which class would you pick?
band B

Looking at CCCc1nc(CC)c(C(N)=O)n1Cc1ccc(-c2cc(-c3ccccc3)ccc2-c2nn[nH]n2)cc1 , which class would you pick?
band B

Looking at CCc1nc2c(C)cc(C)nc2n1Cc1ccc(-c2cc(-n3cccn3)ccc2-c2nn[nH]n2)cc1 , which class would you pick?
band A

* * *

biological target: AGTR1 (Homo sapiens, UniProt P30556); construct: host or cells: Pathunter CHO-K1 AGTR1 β-arrestin cell line (CHO-K1); assay: DiscoveRx β-arrestin2 recruitment assay (enzyme complementation, Pathunter CHO-K1 AGTR1 β-arrestin cell line); format: cell-based; settings: DiscoveRx β-arrestin2 recruitment, maximal response
observed.property: DiscoveRx β-arrestin2 Ymax (%)
Your answer should be a plain number; it is taken to be in %.

Observe how each entry below is paired with its result.
CCCCC1=NC2(CCCC2)C(=O)N1Cc1ccc(-c2cc(-c3cc(OC)ccn3)ccc2-c2nn[nH]n2)cc1 [Example 141] ... 31.5
CCc1nc2c(C)cc(C)nc2n1Cc1ccc(-c2cc(-c3cn(C)nn3)ccc2-c2nnn[nH]2)cc1 [Example 243] ... 37.7
CCc1nc2c(C)cc(C)nc2n1Cc1ccc(-c2cc(Oc3ncccc3F)ccc2-c2nn[nH]n2)cc1 [Example 253] ... 37.2
CCOc1nc2cccc(C(=O)O)c2n1Cc1ccc(-c2cc(Oc3ccccc3)ccc2-c2nn[nH]n2)cc1 [Example 330] ... 57.8
CCCCc1ncc(C(=O)NCCO)n1Cc1ccc(-c2cc(-c3ccccc3)ccc2-c2nn[nH]n2)cc1 [Example 348] ... 50.9

Give the measured DiscoveRx β-arrestin2 Ymax (%) for CCc1nc2c(C)cc(C)nc2n1Cc1ccc(-c2cc(C3CCCO3)ccc2-c2nn[nH]n2)cc1 (single isomer, unassigned) [Example 73]
26.4

Give the measured DiscoveRx β-arrestin2 Ymax (%) for CCCCC1=NC2(CCCC2)C(=O)N1Cc1ccc(-c2cc(N3CCCC(C)(C)C3)ccc2-c2nn[nH]n2)cc1 [Example 102]
41.0
